# ASSAY REMARKS: RAM signaling pathway blockade in yeast – S. cerevisiae, Pdr1DBD-CYC8 efflux-inhibited sensitized strain, primary screen (AID 1298);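 further: 0% = DMSO untreated cells without growth and 100% = 10 µM 1-NA-PP1 full growth; higher means more yeast growth rescued from 5-FOA killing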
# EXPERIMENTAL SETUP: S. cerevisiae cbk1-as DSE1-URA3 strain, 5-FOA growth OD615, 2 d; at 50 µM; stronger effect = higher value
# RAM network inhibition values compiled below
Answer format: numeric, % implied, no suffix.

# COMPOUND, U, RAM network inhibition
measured = [
    ("O=C1CC(N2CCN(C(c3ccccc3)c3ccccc3)CC2)C(=O)N1 (configuration not stated)", "%", 5.3),
    ("O=C(CN1C(=O)c2ccccc2S1(=O)=O)N1CCN(c2ccccc2F)CC1", "%", 2.92),
    ("Cc1ccc(N=C2SCCCN2C(=O)c2ccco2)cc1Cl", "%", 0.78),
    ("COc1ccc(N2CSC3=C(C#N)C(c4cc(OC)c(OC)cc4OC)CC(=O)N3C2)c(OC)c1 (configuration not stated)", "%", 2.63),
    ("CCCS(=O)(=O)NCc1cn2c(C)csc2n1", "%", 5.52),
    ("O=C1CC(c2ccccc2)CC(O)=C1C=NCCN1CCNCC1 (configuration not stated)", "%", -1.05),
    ("O=C(NCCN1C(=O)C2C3C=CC(C3)C2C1=O)Nc1ccccc1 (configuration not stated)", "%", -0.05),
    ("COc1ccc(S(=O)(=O)Nc2cc(Cl)ccc2OC)cc1", "%", 6.09),
    ("O=C1NCCCC1C(=O)NCCN1C(=O)CCC1=O (configuration not stated)", "%", 3.29),
    ("COc1ccc(NC(=O)Nc2nnc(N3CCCCC3C)s2)cc1OC (configuration not stated)", "%", 3.85),
]

Need RAM network inhibition, item COc1ccccc1-c1nc2n(n1)C(c1ccccc1Cl)C(C(N)=O)=C(C)N2 (configuration not stated) -1.52

Try the compound CC(C)c1cc(=O)oc2c3c4c(cc12)CCCN4CCC3 3.62

---

# inhibition values compiled below
# ASSAY REMARKS: 384-well plate pilot, post-Golgi transport modulator project, inhibition of yeast transport mutant growth (AID 636)
# EXPERIMENTAL SETUP: absorbance 615 nm, about 18 h, stronger effect = higher value
Answer format: numeric, % implied, no suffix.

# COMPOUND, U, inhibition
measured = [
    ("Cc1ccc(S(=O)(=O)N2CCCC2C(=O)n2nc(C)cc2C)cc1 (stereo not given)", "%", -7.97),
    ("CCOC(=O)CC12CN3CN(C1)CC(CC(=O)OCC)(C3)C2=O", "%", -5.95),
    ("COc1ccc(CC(=O)Nc2c3c(nn2-c2cccc(Cl)c2)CS(=O)(=O)C3)cc1", "%", -6.8),
    ("Cc1cc(NC(=O)COc2cccc3cccnc23)no1", "%", -5.47),
]

Need inhibition, item COCCSc1ccccc1C(=O)Nc1nncs1 -4.73

---

# Her2 level values compiled below
# TARGET: Receptor tyrosine-protein kinase erbB-2 (Homo sapiens) (UniProt P04626)
# Sequence (P04626 whole entry, looked up): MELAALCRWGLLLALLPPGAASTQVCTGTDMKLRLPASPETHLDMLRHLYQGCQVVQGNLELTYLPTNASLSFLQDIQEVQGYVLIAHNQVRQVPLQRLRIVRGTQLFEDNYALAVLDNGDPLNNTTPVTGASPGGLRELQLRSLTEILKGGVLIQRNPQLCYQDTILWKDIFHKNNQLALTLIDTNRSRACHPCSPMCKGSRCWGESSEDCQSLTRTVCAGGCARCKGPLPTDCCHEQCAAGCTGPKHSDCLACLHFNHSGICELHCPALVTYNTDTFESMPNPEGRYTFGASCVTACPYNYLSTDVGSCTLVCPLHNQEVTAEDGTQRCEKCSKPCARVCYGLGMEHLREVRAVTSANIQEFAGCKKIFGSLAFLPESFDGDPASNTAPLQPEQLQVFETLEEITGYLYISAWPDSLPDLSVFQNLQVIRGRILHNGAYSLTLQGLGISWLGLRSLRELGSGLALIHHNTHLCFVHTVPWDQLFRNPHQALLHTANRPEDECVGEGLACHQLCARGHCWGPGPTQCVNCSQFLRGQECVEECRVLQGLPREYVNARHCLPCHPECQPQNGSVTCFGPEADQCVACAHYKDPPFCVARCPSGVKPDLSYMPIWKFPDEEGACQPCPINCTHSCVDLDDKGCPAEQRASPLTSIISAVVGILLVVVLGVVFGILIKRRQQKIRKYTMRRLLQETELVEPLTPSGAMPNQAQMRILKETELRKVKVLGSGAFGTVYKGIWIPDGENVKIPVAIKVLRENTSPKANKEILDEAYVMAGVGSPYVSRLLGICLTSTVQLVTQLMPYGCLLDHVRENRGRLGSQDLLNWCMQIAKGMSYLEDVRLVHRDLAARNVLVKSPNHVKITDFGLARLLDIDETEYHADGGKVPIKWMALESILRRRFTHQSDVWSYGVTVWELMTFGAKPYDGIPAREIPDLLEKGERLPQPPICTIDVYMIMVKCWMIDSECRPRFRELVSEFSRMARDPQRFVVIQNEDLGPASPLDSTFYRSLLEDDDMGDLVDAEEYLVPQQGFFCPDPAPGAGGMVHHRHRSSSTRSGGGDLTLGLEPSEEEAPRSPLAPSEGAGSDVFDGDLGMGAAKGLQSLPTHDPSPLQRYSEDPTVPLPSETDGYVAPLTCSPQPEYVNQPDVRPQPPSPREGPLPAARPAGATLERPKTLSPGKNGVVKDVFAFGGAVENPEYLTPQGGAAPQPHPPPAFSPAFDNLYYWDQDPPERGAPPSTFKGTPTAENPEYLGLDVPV
# ASSAY REMARKS: reducers of endogenous Her2 protein level, primary screen, SKBR3 breast tumor cells, AlphaScreen, ATP viability (AID 461);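 on Her2 level: lower value means less Her2 protein in the cells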;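 on viability: percent of carrier control wells set as 100% viability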
# EXPERIMENTAL SETUP: 18-24 h, at 10 µM, stronger effect = lower value
Answer format: numeric, % implied, no suffix.

Example compounds with recorded Her2 level:
# COMPOUND, TARGET, U, Her2 level
measured = [
    ("CN(C)C(=O)c1ccc(COc2ccccc2Br)o1", "Receptor tyrosine-protein kinase erbB-2 (Homo sapiens) (UniProt P04626)", "%", 84),
    ("CCOC(=O)c1ccc(Oc2nc(SC)nc(N(C)C)n2)cc1", "Receptor tyrosine-protein kinase erbB-2 (Homo sapiens) (UniProt P04626)", "%", 100),
    ("NC(=O)CSc1nnc(-c2ccc(O)cc2)n1Cc1ccco1", "Receptor tyrosine-protein kinase erbB-2 (Homo sapiens) (UniProt P04626)", "%", 102),
    ("O=C1CC(c2ccccc2)n2nc(NC(=O)c3ccccn3)nc2N1 (stereo not given)", "Receptor tyrosine-protein kinase erbB-2 (Homo sapiens) (UniProt P04626)", "%", 78),
]

Need Her2 level, item CCCn1cnc2c(c1=O)c1nc3ccccc3nc1n2Cc1ccccc1OC 97

---

# ASSAY REMARKS: viability gain of MRP-1-high H69AR cells under doxorubicin, pilot screen, MRP-1 activator project, CellTiter-Glo, duplicate (AID 807);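 further: compound pretreatment 18-22 h then 72 h combined with doxorubicin; 0% = doxorubicin alone and 100% = vehicle without doxorubicin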
# EXPERIMENTAL SETUP: H69AR viability with doxorubicin, CellTiter-Glo luminescence; at 10 µM; stronger effect = higher value
# viability increase values compiled below
Answer format: numeric, % implied, no suffix.

# COMPOUND, viability increase / %
records = [
    ("CC(NC(=O)C(C)(C)C)c1nc2ccccc2n1C (stereo not drawn)", -3.14),
    ("Cc1ccc(C)c(-n2nnnc2SCC(=O)Nc2cccc(-c3nnc4n3CCCCC4)c2)c1", -0.74),
]

Next item in the queue.
Need viability increase, item CC(=O)Nc1nnc(C)s1 -2.11

---

# ASSAY REMARKS: inhibitors of the yeast RAM network, pilot screen, dse1pr::URA3 reporter, 5-FOA selection (AID 869);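 further: 0% = DMSO wells with no growth and 100% = 10 µM 1-NA-PP1 with full growth; RAM network block rescues cells from 5-FOA so hits raise OD615 growth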
# EXPERIMENTAL SETUP: S. cerevisiae dse1pr::URA3 5-FOA growth, OD615, 2 d; at 10 µM; stronger effect = higher value; strain carries analog-sensitive mutant Cbk1 kinase
QUANTITY: inhibition (%)
Answer format: numeric, % implied, no suffix.

Example compounds with recorded inhibition:
# COMPOUND, inhibition (%)
measured = [
    ("CC1=C(C(=O)OCc2ccc3c(c2)OCO3)C(c2ccc(Cl)cc2)NC(=O)N1 (stereo not drawn)", 1.32),
    ("CCn1cc(C(=O)NC2CCCCCC2)c2cc(OC)c(OC)cc2c1=O", 2.02),
    ("CCOC(=O)CN1CC23C=CC(O2)C(C(=O)Nc2ccc4c(c2)OCO4)C3C1=O (stereo not drawn)", 2.71),
    ("COC(=O)c1coc(-c2ccc(C)cc2)c1C(=O)OC", 0.11),
    ("Cc1ccccc1Cn1cc(S(=O)(=O)CC(=O)Nc2nccs2)c2ccccc21", 4.8),
    ("CC(=O)Nc1ccccc1NC(=O)C(F)(F)F", 1.51),
    ("CCOC(=O)c1sc(NC(=O)c2ccco2)nc1-c1ccccc1", 4.44),
    ("O=C(CSc1nc2c(c(=O)n1-c1ccc(Cl)cc1)SCC2)N1CCOCC1", -0.06),
]

Need inhibition, item Cn1c(C(=O)N2CCCC2)cc2c(=O)n(C)c3ccccc3c21 2.04

Try the compound CCC(=O)Nc1cccc(-c2nnc(SCC(=O)c3ccccc3)n2C)c1 0

Try the compound CCc1ccccc1NC(=O)c1cc(-c2cccc(O)c2)on1 4.72

Try the compound Cc1ccc(NC(=O)c2cc(-c3cccc(O)c3)on2)cc1C 3.14

Try the compound O=C(NC1CCCCC1)C(c1ccccc1)N1CCC2(CC1)OCCO2 (stereo not drawn) 1.5

Try the compound Nn1c(SCC(=O)Nc2ccc(F)cc2)nnc1-c1ccccn1 1.88

---

# viability values compiled below
# ASSAY REMARKS: reducers of endogenous Her2 protein level, primary screen, SKBR3 breast tumor cells, AlphaScreen, ATP viability (AID 461);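 on viability: percent of carrier control wells set as 100% viability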
# EXPERIMENTAL SETUP: 18-24 h, measured here: SKBR3 viability, ATP luminescence, at 10 µM
Answer format: numeric, % implied, no suffix.

# MOLECULE, U, ASSAY VALUE
measured = [
    ("O=C(NCc1ccco1)C(c1ccco1)N(C(=O)Cn1nnc2ccccc21)c1ccc2c(c1)CCC2 (stereo not drawn)", "%", 95.5),
    ("O=C(CSc1ncccn1)NCc1ccccc1", "%", 94),
    ("CCOC(=O)c1cc(C)n(CCCN2CCOCC2)c1C", "%", 90.5),
]

Need viability, item C=CCSC1=C(C#N)C(c2ccccc2OCC)CC(=O)N1 (stereo not drawn) 94

Try the molecule CC1=C(C(=O)OCCOC(C)C)C(c2cc3c(cc2Br)OCO3)C2=C(CCCC2=O)N1 (stereo not drawn) 102

Try the molecule CC(=O)c1cnc2cc(-c3ccccc3)nn2c1C 91.5

Try the molecule Nc1cc(-c2ccccc2)ccc1O 100

Try the molecule Cc1csc2nc(CNC(=O)c3ccco3)cn12 86

---

# ASSAY REMARKS: HUVEC growth inhibition – cell-based, human, primary screen (AID 575);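 further: 100% = median of untreated cell wells with 0.1% DMSO on each plate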
# EXPERIMENTAL SETUP: HUVEC proliferation, CellTiter-Glo luminescence, 72 h; at 10 µM; stronger effect = lower value
QUANTITY: viability (%)
Answer format: numeric, % implied, no suffix.

# COMPOUND, U, ASSAY VALUE
measured = [
    ("C[N+]12CCC(CC1)C(OC(=O)C(O)(c1ccccc1)c1ccccc1)C2 (stereo unspecified)", "%", 100),
    ("CCOc1cc(N2CCOCC2)c(OCC)cc1NC(=O)COC(=O)CCc1c[nH]c2ccccc12", "%", 105),
    ("COc1ccc(Cn2c(-c3ccco3)nc3oc4ccccc4c(=O)c3c2=O)cc1", "%", 101),
    ("CCN(C(=O)c1cn(C)c(=O)c2cc(OC)c(OC)cc12)c1ccccc1C", "%", 106),
    ("CS(=O)(=O)Nc1ccc([N+](=O)[O-])cc1Oc1ccccc1", "%", 106),
    ("CN(C)CCOc1ccccc1Cc1ccccc1", "%", 107),
]

Need viability, item C=CCn1c(-c2ccc(OC)cc2)nc2ccccc21 110

Try the compound O=C(O)c1cc2c(s1)CCCC2 104

Try the compound CCN(CC)S(=O)(=O)c1ccc(N2CCCC2)c(C(=O)OCC(=O)/C(C#N)=C(\C)N)c1 66.7

Try the compound COc1ccccc1NC(=O)C1CC(=O)N(c2ccc(F)cc2)C1 (stereo unspecified) 109

Try the compound Cc1onc(-c2ccccc2Cl)c1C(=O)Nc1cccc(-c2cn3cccnc3n2)c1 71.4
